Molecular target: T1, apical domain of cynomolgus CD71 (cynomolgus, UniProt A0A2K5X958 189-383)
T1 construct: domain: apical domain; also called Cyno apical domain
T1 sequence (A0A2K5X958 entry or part of it): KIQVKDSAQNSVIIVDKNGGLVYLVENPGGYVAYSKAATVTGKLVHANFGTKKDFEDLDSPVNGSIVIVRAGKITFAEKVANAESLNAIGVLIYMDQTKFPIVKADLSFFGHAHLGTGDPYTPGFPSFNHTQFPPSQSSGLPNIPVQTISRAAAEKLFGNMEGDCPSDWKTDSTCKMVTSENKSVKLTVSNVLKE
Assay: primary ELISA, signal ratio to HSA
test_readout: Cyno apical domain:HSA

binder	measured_value
CD71-binding FN3 domain of SEQ ID NO: 217 (designed binder) MSLPAPKNLVVSRVTEDSARLSWTAPDAAFDSFEIAYFEQTYTGEAIVLTVPGSERSYDLTGLKPGTEYWVAIGGVKGGLWSLPLSAIFTT	74

P: CD71-binding FN3 domain of SEQ ID NO: 152 (designed binder) MSLPAPKNLVVSRVTEDSARLSWTAPDAAFDSFDIGYFEATYYGEAIVLTVPGSERSYDLTGLKPGTEYWVQIGGVKGGNWSAPLSAIFTT
Q: CD71-binding FN3 domain of SEQ ID NO: 200 (designed binder) MSLPAPKNLVVSRVTEDSARLSWTAPDAAFDSFEIGYFENLYLGEAIVLTVPGSERSYDLTGLKPGTEYWVQIGGVKGSNWSAPLSAIFTT
R: CD71-binding FN3 domain of SEQ ID NO: 168 (designed binder) MSLPAPKNLVVSRVTEDSARLSWTAPDAAFDSFIIGYLEPQPPDEAIALYVPGSERSYDLTGLKPGTEYNVTIQGVKGGFPSLPLVATFTT
**Query** Reorder: Cyno apical domain:HSA, max to min. Answer with the labels in sequence, matching the requested order.
**Result** P, Q, R

a: CD71-binding FN3 domain of SEQ ID NO: 218 (designed binder) MSLPAPKNLVVSRVTEDSARLSWTAPDAAFDSFEIAYHEDDFYGEAIALLVPGSERSYDLTGLKPGTEYIVHIGGVKGGFFSSPLYAWFTT
b: CD71-binding FN3 domain of SEQ ID NO: 204 (designed binder) MSLPAPKNLVVSRVTEDSARLSWTAPDAAFDSFLIQYDEWPTYGEAIVLTVPGSERSYDLTGLKPGTEYLVEIVGVKGGNLSGPLSAIFTT
c: CD71-binding FN3 domain of SEQ ID NO: 188 (designed binder) MSLPAPKNLVVSRVTEDSARLSWTAPDAAFDSFEIGYWENAYKGEAIVLTVPGSERSYDLTGLKPGTEYVVFIGGVKGGHGSQPLSAIFTT
d: CD71-binding FN3 domain of SEQ ID NO: 190 (designed binder) MSLPAPKNLVISRVTEDSARLSWTAPDAAFDSFEIGYFENLYLGEAIVLTVPGSERSYDLTGLKPGTEYWVQIGGVKGGNWSAPLSAISTT
**Query** Order each entry by recorded Cyno apical domain:HSA, climbing from the minimum. Answer with the labels in sequence, matching the requested order.
**Result** d, c, a, b

P: CD71-binding FN3 domain of SEQ ID NO: 132 (designed binder) MSLPAPKNLVVSRVTEDSARLSWTAPDAAFDSFEIGYFENLYLGEAIVLTVPGSERSYDLTGLKPGTEYWVQIGGVKGVNWSAPLSAIFTT
Q: CD71-binding FN3 domain of SEQ ID NO: 148 (designed binder) MSLPAPKNLVVSRVTEDSARLSWTAPDAAFDSFEIVYQENSAYGEAIVLTVPGSERSYDLTGLKPGTEYWVQIGGVKGGEWSAPLSAIFTT
**Query** // pick min by Cyno apical domain:HSA: P , Q Mark your selection by writing its label.
**Result** P

I: CD71-binding FN3 domain of SEQ ID NO: 130 (designed binder) MSLPAPKNLVVSRVTEDSARLSWTAPDAAFDSFEIAYFERTWFGEAIVLTVPGSERSYDLTGLKPGTEYWVQIGGVKGGDWSAPLSAIFTT
II: CD71-binding FN3 domain of SEQ ID NO: 121 (designed binder) MSLPAPKNLVVSRVTEDSARLSWTAPDAAFDSFFIGYLEPQPPGEAITLYVPGSERSYDLTGLKPGTEYNVTIQGVKGGFPSAPLSAIFTT
**Query** // pick min by Cyno apical domain:HSA: I , II Mark your selection by writing its label.
**Result** II
